Value source: PubChem BioAssay

Provide the recorded nuclei count for the entries that follow.
- protocolDetails: inhibitors of E-selectin induction by TNFa, primary screen, imaging, HUVEC, immunofluorescence, MLSMR starter and 10KST1 sets (AID 487);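 further: 100% = median nuclei count of all wells on the same plate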
- measurementSetup: HUVEC TNFalpha-induced E-selectin immunofluorescence imaging, at 2 µM; measured here: cell number, toxicity
Numbers only, in %.

Some solved cases for reference:
O=C(Nc1cccnc1)c1cccnc1	158
CCOC(=O)c1c(C)cccc1OCC(N)=O	175
Cc1ccc(N(Cc2cc3ccccc3[nH]c2=O)C(=O)c2ccco2)c(C)c1	173
CC(C(=O)O)c1ccc(-c2ccccc2)c(F)c1 (stereo unspecified)	113
COc1ccc(CN2CCC(=O)NC2=O)cc1	162

Pending compound:
For Cc1onc(-c2ccccc2)c1C(=O)N[C@@H]1C(=O)N2[C@@H]1SC(C)(C)[C@@H]2C(=O)O , what is its reported nuclei count? 126
